System: HIV
Protocol: MT4 assay: antiviral HIV activity (cell protection, cell titer glo readout at 96 hours)
Assay type: cell-based
Experimental Parameters: Human immunodeficiency virus 1, MT4, 96 h, MT4 cells, cell titer glo readout at 96 hours, 10 point dose response; read-out: HIV MT4 Assay IC50
In this section we review reported log10 IC50 values for a set of compounds.
Parameter value (number): base-10 log of IC50 in nM.

Some compounds with known log10 IC50 results, for comparison:
Compound | log10 IC50
Cc1nc2c(cc(-c3ccnc(N4CCCN(C5COC5)CC4)c3)n2C)c(-c2ccc3c(c2C)CCCO3)c1[C@H](OC(C)(C)C)C(=O)O | 1.21
Cc1nc2c(cc(C(=O)NCC3CCC3)n2C)c(-c2cc(F)c3c(c2C)CCCO3)c1[C@H](OC(C)(C)C)C(=O)O | 1.00
Cc1nc2c(cc(C(=O)N3CCN(CC(=O)N4CCOCC4)CC3)n2C)c(-c2cc(F)c3c(c2C)CCCO3)c1[C@H](OC(C)(C)C)C(=O)O | 4.06
Cc1nc2c(cc(-c3ccnc(CNc4ncc(F)cn4)c3)n2C)c(-c2cc(F)c3c(c2C)CCCO3)c1[C@H](OC(C)(C)C)C(=O)O | 1.75
Cc1nc2c(cc(-c3ccnc(N4CCCN(C5CCOC5)CC4)c3)n2C)c(-c2cc(F)c3c(c2C)CCCO3)c1[C@H](OC(C)(C)C)C(=O)O (stereo partly shown) | 1.35
Cc1nc2c(cc(-c3nc(N4CCN(C5CCOCC5)C[C@H]4C)ns3)n2C)c(-c2cc(F)c3c(c2C)CCCO3)c1[C@H](OC(C)(C)C)C(=O)O | 0.61
Cc1nc2c(cc(-c3ccnc(-c4ccc5c(c4)ncn5C)c3)n2C)c(-c2cc(F)c3c(c2C)CCCO3)c1[C@H](OC(C)(C)C)C(=O)O | 0.60
Cc1nc2c(cc(-c3nc(N4CCN(S(=O)(=O)N5CCOCC5)CC4)ns3)n2C)c(-c2cc(F)c3c(c2C)CCCO3)c1[C@H](OC(C)(C)C)C(=O)O | 0.69
Cc1nc2c(cc(-c3ccnc(N4CCCN(S(=O)(=O)C5CC5)CC4)c3)n2C)c(-c2cc(F)c3c(c2C)CCCO3)c1[C@H](OC(C)(C)C)C(=O)O (atropisomer, axis not shown) | 1.40
Cc1nc2c(cc(-c3ccnc(NC4C[C@H]5CC[C@@H](C4)N5C)c3)n2C)c(-c2cc(F)c3c(c2C)CCCO3)c1[C@H](OC(C)(C)C)C(=O)O (stereo partly shown) | 3.12

IN: Query (compound): `Cc1nc2c(cc(C3CCC(C)(C)CC3)n2C)c(-c2cc(F)c3c(c2C)CCCO3)c1[C@H](OC(C)(C)C)C(=O)O` ; field requested: log10 IC50
OUT: 2.60

IN: Query (compound): Cc1nc2c(cc3n2CCCC3)c(-c2cc(F)c3c(c2C)CCCO3)c1[C@H](OC(C)(C)C)C(=O)O (atropisomer, axis not shown; (M)) ; field requested: log10 IC50
OUT: 1.14

IN: Query (compound): `Cc1nc2c(cc(C(=O)NCCN3CCCC3=O)n2C)c(-c2cc(F)c3c(c2C)CCCO3)c1[C@H](OC(C)(C)C)C(=O)O` ; field requested: log10 IC50
OUT: 3.48

IN: Query (compound): Cc1nc2c(cc(-c3ccc(F)cc3)n2C)c(-c2cc(F)c3c(c2C)CCCO3)c1[C@H](OC(C)(C)C)C(=O)O (atropisomer, axis not shown) ; field requested: log10 IC50
OUT: 1.95

IN: Query (compound): Cc1nc2c(cc(-c3ccnc(N4CCn5c(C)nnc5C4)c3)n2C)c(-c2cc(F)c3c(c2C)CCCO3)c1[C@H](OC(C)(C)C)C(=O)O (atropisomer, axis not shown) ; field requested: log10 IC50
OUT: 2.81

IN: Query (compound): Cc1nc2c(cc(-c3ccnc(-c4ccc5nnn(C)c5c4)c3)n2C)c(-c2cc(F)c3c(c2C)CCCO3)c1[C@H](OC(C)(C)C)C(=O)O (atropisomer, axis not shown) ; field requested: log10 IC50
OUT: 1.04

IN: Query (compound): Cc1nc2c(cc(-c3ccnc(N4CCN(c5nccs5)CC4)c3)n2C)c(-c2cc(F)c3c(c2C)CCCO3)c1[C@H](OC(C)(C)C)C(=O)O (atropisomer, axis not shown) ; field requested: log10 IC50
OUT: 1.17
